Experiment: Half life in dog liver microsomes in presence of NADPH
Type: ADME, Canis lupus familiaris, Microsome
readout_type: half-life (min)
The answer is to be given in min; state only the numeric part.

### Prompt Specify measured half-life for N#Cc1cnc2ccc(-c3c(-c4ccc(F)c(Cl)c4)ncn3CCO)nn12 .
### Response 37

----------
Assay: Cmax in Sprague Dawley rat at 10 mg/kg, po
Format: ADME, organism-based
Parameters: dose 10 mg/kg, route oral
Details: in vivo
readout_type: Cmax (µM)
The answer is to be given in µM; state only the numeric part.

### Prompt Specify measured Cmax for N#Cc1cnc2ccc(-c3c(-c4ccc(F)c(Cl)c4)ncn3CCO)nn12 .
### Response 12.7
